- Target Of Assay: Adenosine receptor A1 (Rattus norvegicus, UniProt P25099)
- Sequence (P25099 whole entry): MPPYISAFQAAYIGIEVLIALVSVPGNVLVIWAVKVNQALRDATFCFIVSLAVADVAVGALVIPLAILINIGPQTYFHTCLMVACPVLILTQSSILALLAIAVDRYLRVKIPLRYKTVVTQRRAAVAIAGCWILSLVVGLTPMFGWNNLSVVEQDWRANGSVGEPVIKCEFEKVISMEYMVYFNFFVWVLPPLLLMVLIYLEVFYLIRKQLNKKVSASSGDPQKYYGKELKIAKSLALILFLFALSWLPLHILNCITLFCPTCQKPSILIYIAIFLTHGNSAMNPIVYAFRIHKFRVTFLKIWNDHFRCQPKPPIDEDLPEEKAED
Quantity Measured: Ki

Query: Item `Cn1ccc2cc3c(cc21)CCN3C(=O)Nc1cccnc1` with Adenosine receptor A1 (Rattus norvegicus, UniProt P25099) - Ki?
Result: > 10 µM

* * *

- Target Of Assay: Histamine H1 receptor (Cavia porcellus, UniProt P31389)
- Sequence (P31389 whole entry): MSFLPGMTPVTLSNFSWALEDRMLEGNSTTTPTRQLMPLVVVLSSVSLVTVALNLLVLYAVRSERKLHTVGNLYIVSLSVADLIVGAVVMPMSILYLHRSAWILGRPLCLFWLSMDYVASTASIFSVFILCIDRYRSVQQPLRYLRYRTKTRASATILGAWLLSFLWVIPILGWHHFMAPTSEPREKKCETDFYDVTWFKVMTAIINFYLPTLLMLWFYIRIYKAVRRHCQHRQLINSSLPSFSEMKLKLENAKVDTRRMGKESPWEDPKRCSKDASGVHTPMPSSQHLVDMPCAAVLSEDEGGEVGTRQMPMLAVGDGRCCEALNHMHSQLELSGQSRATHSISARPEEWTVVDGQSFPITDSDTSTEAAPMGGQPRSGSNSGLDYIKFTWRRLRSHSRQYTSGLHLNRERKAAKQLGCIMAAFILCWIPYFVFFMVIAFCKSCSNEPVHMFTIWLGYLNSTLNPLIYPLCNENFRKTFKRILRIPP
Quantity Measured: Ki

Query: Quick one: Ki of `Cn1ccc2cc3c(cc21)CCN3C(=O)Nc1cccnc1` ?
Result: > 10 µM

* * *

- Target Of Assay: Gamma-aminobutyric acid receptor subunit alpha-1 (Rattus norvegicus, UniProt P62813)
- Sequence (P62813 whole entry): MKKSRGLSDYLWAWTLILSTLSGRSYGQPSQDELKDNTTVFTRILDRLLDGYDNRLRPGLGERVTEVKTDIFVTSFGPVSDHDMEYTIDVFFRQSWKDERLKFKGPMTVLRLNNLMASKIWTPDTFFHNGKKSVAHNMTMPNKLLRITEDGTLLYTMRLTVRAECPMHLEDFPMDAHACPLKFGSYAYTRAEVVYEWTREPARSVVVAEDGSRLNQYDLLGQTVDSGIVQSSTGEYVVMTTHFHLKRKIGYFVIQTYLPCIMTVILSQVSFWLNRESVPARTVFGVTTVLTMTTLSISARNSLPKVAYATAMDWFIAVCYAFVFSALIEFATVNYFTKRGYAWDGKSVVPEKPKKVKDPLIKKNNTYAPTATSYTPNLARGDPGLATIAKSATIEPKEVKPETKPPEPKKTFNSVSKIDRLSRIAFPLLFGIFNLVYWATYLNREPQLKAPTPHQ
Quantity Measured: Ki

Query: Quick one: Ki of `Cn1ccc2cc3c(cc21)CCN3C(=O)Nc1cccnc1` ?
Result: > 10 µM

* * *

- Target Of Assay: UniProt P28566
- Sequence (P28566 whole entry): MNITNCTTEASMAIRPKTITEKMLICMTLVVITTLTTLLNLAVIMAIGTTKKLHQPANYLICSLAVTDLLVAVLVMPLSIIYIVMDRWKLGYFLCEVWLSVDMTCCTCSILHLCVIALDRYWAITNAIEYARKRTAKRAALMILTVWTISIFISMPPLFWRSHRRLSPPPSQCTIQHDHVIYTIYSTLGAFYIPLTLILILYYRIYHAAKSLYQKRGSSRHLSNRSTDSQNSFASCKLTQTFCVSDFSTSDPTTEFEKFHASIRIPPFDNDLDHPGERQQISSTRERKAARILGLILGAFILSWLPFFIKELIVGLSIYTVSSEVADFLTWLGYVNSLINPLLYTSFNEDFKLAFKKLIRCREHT
Quantity Measured: pKi
Answers are plain numbers, as −log10 of the molar value.

Query: Quick one: pKi of `Cn1ccc2cc3c(cc21)CCN3C(=O)Nc1cccnc1` ?
Result: 5.30

* * *

- Target Of Assay: UniProt:P21917
- Sequence (P21917 whole entry): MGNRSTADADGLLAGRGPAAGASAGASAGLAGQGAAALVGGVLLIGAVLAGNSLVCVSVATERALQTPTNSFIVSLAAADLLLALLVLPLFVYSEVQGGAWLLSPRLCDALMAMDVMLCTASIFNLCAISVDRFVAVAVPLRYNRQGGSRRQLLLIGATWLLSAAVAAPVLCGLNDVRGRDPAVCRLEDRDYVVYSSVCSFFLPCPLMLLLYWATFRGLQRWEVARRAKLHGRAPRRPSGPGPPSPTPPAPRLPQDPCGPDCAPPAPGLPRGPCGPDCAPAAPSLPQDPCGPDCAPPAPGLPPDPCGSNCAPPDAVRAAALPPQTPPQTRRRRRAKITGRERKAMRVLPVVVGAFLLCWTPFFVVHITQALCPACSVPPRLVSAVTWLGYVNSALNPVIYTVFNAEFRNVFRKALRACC
Quantity Measured: Ki

Query: Quick one: Ki of `Cn1ccc2cc3c(cc21)CCN3C(=O)Nc1cccnc1` ?
Result: > 10 µM

* * *

- Target Of Assay: Alpha-1A adrenergic receptor (Rattus norvegicus)
- Sequence (P43140 whole entry): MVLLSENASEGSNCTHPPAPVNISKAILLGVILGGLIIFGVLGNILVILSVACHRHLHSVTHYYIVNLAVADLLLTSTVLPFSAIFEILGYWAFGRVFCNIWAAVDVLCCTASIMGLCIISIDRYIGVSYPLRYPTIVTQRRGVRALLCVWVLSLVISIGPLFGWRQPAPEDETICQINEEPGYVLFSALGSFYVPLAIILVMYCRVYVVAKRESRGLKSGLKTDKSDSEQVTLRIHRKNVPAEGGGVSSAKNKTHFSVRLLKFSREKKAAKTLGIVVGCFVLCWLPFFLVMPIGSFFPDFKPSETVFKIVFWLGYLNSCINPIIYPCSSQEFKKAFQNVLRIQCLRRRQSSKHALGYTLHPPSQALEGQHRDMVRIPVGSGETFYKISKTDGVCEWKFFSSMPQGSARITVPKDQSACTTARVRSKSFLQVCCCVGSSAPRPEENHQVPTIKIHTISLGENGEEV
Quantity Measured: Ki

Query: Item `Cn1ccc2cc3c(cc21)CCN3C(=O)Nc1cccnc1` with Alpha-1A adrenergic receptor (Rattus norvegicus) - Ki?
Result: > 10 µM

* * *

- Target Of Assay: D(3) dopamine receptor (Homo sapiens)
- Sequence (P35462 as listed by the source): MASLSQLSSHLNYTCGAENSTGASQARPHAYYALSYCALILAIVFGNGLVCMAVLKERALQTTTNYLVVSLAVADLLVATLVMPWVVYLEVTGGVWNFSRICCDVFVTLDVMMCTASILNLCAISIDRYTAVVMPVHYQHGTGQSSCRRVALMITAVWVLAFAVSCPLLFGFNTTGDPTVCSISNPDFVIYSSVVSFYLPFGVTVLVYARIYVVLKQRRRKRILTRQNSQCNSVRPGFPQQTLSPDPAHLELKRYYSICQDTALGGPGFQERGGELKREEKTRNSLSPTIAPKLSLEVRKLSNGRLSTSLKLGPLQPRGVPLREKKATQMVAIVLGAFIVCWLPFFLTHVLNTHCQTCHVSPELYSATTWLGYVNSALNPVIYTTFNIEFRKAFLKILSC
Quantity Measured: Ki

Query: Quick one: Ki of `Cn1ccc2cc3c(cc21)CCN3C(=O)Nc1cccnc1` ?
Result: > 10 µM

Source listed as BindingDB's records for doi:10.1111/j.1476-5381.1996.tb15208.x.
